# pIC50 listing for each entry below
system: breast cancer cell lines (e.g. MDA-MB-231, SK-BR-3, MDA-MB-468, HCC1954); assay: Cell based assay, cell viability (CellTiter-Glo), breast cancer cell lines; settings: Breast cancer cell line MDA-MB-231-L/DOX; 72 hours; CellTiter-Glo; read-out: IC50, MDA-MB-231-L/DOX
pIC50: −log10 of the molar value.

| Molecule | pIC50 |
| --- | --- |
| COc1cc(C[S+]([O-])c2[nH]c3c(Br)ccc(Cl)c3c(=O)c2C(C)=O)cc(OC)c1 (stereo not drawn) | < 5.70 |
| CC(=O)c1c([S+]([O-])c2ccccc2)[nH]c2c(Br)ccc(Cl)c2c1=O (stereo not drawn) | < 5.70 |
| CC(=O)c1c([S+]([O-])Cc2ccc(C(F)(F)F)o2)[nH]c2c(Br)ccc(Cl)c2c1=O (stereo not drawn) | < 5.70 |

====

tested on: bladder cancer cell lines; assay: Cell based assay, cell viability (CellTiter-Glo), bladder cancer cell lines; settings: Homo sapiens; KU-19-19 cells; 72 hours treatment; 0 to 2 μM; CellTiter-Glo; read-out: IC50, bladder cancer cell line KU-19-19
pIC50: −log10 of the molar value.
Reported endpoint: pIC50

| Compound | Reported endpoint | Result |
| --- | --- | --- |
| CC(=O)c1c(S(C)(=O)=O)n(C(=O)c2ccc(Br)cc2)c2c(Br)ccc(Cl)c2c1=O [Compound 21] | pIC50 | < 5.70 |
| CSc1c(C(C)=O)c(=O)c2c(Cl)ccc(Br)c2n1C(C)=O [Compound 18] | pIC50 | < 5.70 |
| CC(=O)c1c([S+]([O-])CN2C(=O)c3ccccc3C2=O)[nH]c2c(Cl)ccc(Cl)c2c1=O (stereo not drawn) [Compound 90] | pIC50 | < 5.70 |
| CC(=O)c1c(SCc2cc(Cl)ccc2Cl)[nH]c2c(Br)ccc(Cl)c2c1=O [Compound 43] | pIC50 | < 5.70 |
| CSc1c(C(C)=O)c(=O)c2c(Cl)ccc(Br)c2n1S(C)(=O)=O [Compound 35] | pIC50 | < 5.70 |
| CSc1c(C(C)=O)c(=O)c2c(Cl)ccc(Br)c2n1C [Compound 5] | pIC50 | < 5.70 |
| CC(=O)c1c(Sc2ccccc2)[nH]c2c(Br)ccc(Cl)c2c1=O [Compound 12] | pIC50 | < 5.70 |
| CC(=O)c1c(SCc2ccccc2)[nH]c2c(Br)ccc(Cl)c2c1=O [Compound 3] | pIC50 | < 5.70 |
| CC(=O)c1c([S+](C)[O-])n(S(=O)(=O)C(F)(F)F)c2c(Br)ccc(Cl)c2c1=O (stereo not drawn) [Compound 36] | pIC50 | < 5.70 |
| CC(=O)c1c(SCc2cccc(I)c2)[nH]c2c(Br)ccc(Cl)c2c1=O [Compound 47] | pIC50 | < 5.70 |
| CSc1[nH]c2c(Br)ccc(Cl)c2c(=O)c1C(C)=O [Compound 2] | pIC50 | < 5.70 |
| CC(=O)c1c(Sc2ccc(Br)cc2)[nH]c2c(Br)ccc(Cl)c2c1=O [Compound 16] | pIC50 | < 5.70 |

====

Entries and their pIC50 values follow.
tested on: colorectal cancer cell lines (e.g. DLD-1, HCT 116, SW620, HCT-15, HCT-8, RKO); assay: Cell based assay, cell viability (CellTiter-Glo), colorectal cancer cell lines; details: Homo sapiens, DLD-1, 72 hours treatment, read-out: IC50, colorectal cancer cell line DLD-1
pIC50: −log10 of the molar value.
Reported endpoint: pIC50

| Molecule | Study system | Result |
| --- | --- | --- |
| CC(=O)c1c([S+](C)[O-])[nH]c2c(Br)ccc(Cl)c2c1=O (centres unmarked) | colorectal cancer cell lines (e.g. DLD-1, HCT 116, SW620, HCT-15, HCT-8, RKO) | 6.09 |
| CC(=O)c1c([S+]([O-])Cc2cccc(C#N)c2)[nH]c2c(Br)ccc(Cl)c2c1=O (centres unmarked) | colorectal cancer cell lines (e.g. DLD-1, HCT 116, SW620, HCT-15, HCT-8, RKO) | 6.03 |
| CC(=O)c1c([S+]([O-])Cc2ccc([N+](=O)[O-])cc2)[nH]c2c(Cl)ccc(Cl)c2c1=O (centres unmarked) | colorectal cancer cell lines (e.g. DLD-1, HCT 116, SW620, HCT-15, HCT-8, RKO) | < 5.70 |
| CC(=O)c1c([S+]([O-])Cc2ccc(S(F)(F)(F)(F)F)cc2)[nH]c2c(F)ccc(F)c2c1=O (centres unmarked) | colorectal cancer cell lines (e.g. DLD-1, HCT 116, SW620, HCT-15, HCT-8, RKO) | < 5.70 |
| CC(=O)c1c([S+]([O-])Cc2ccccc2)n(C(=O)c2ccc(Br)cc2)c2c(Br)ccc(Cl)c2c1=O (centres unmarked) | colorectal cancer cell lines (e.g. DLD-1, HCT 116, SW620, HCT-15, HCT-8, RKO) | < 5.70 |
| CC(=O)c1c([S+]([O-])Cc2ccc(SC(F)(F)F)cc2)[nH]c2c(Cl)ccc(Cl)c2c1=O (centres unmarked) | colorectal cancer cell lines (e.g. DLD-1, HCT 116, SW620, HCT-15, HCT-8, RKO) | < 5.70 |
| CSc1c(C(C)=O)c(=O)c2c(Cl)ccc(Br)c2n1C | colorectal cancer cell lines (e.g. DLD-1, HCT 116, SW620, HCT-15, HCT-8, RKO) | < 5.70 |
| CSc1[nH]c2ccc(F)cc2c(=O)c1C(C)=O | colorectal cancer cell lines (e.g. DLD-1, HCT 116, SW620, HCT-15, HCT-8, RKO) | < 5.70 |

====

System: colorectal cancer cell lines (e.g. DLD-1, HCT 116, SW620, HCT-15, HCT-8, RKO)
Test: Cell based assay, cell viability (CellTiter-Glo), colorectal cancer cell lines
Settings: Homo sapiens, HCT-8, 72 hours treatment, read-out: IC50, colorectal cancer cell line HCT-8
Text: Commercially available bladder cancer, prostate cancer, lung cancer, breast cancer, blood cancer, pancreatic cancer, colorectal cancer, brain cancer, neuroblastoma, melanoma, liver cancer, cervical carcinoma, ovarian cancer, renal cancer, and papilloma cell lines were each treated with trypsin-EDTA and cultured, followed by being seeded in each well of a 96 well plate. […]
pIC50: −log10 of the molar value.
Entries and their pIC50

| Compound | Bound type | pIC50 |
| --- | --- | --- |
| CSc1c(C(C)=O)c(=O)c2cc(F)ccc2n1C | < | 5.70 |
| CC(=O)c1c([S+]([O-])Cc2ccc([N+](=O)[O-])cc2)[nH]c2c(Br)ccc(Cl)c2c1=O (stereo not drawn) | = | 5.78 |
| COc1cc(C[S+]([O-])c2[nH]c3c(Br)ccc(Cl)c3c(=O)c2C(C)=O)cc(OC)c1 (stereo not drawn) | = | 5.82 |
| CC(=O)c1c([S+]([O-])Cc2ccccc2C#N)[nH]c2c(Br)ccc(Cl)c2c1=O (stereo not drawn) | = | 5.87 |
| CC(=O)c1c([S+]([O-])Cc2ccc(C(C)(C)C)cc2)[nH]c2c(Br)ccc(Cl)c2c1=O (stereo not drawn) | < | 5.70 |
| CC(=O)c1c(SCC#N)[nH]c2c(Br)ccc(Cl)c2c1=O | < | 5.70 |
| CC(=O)c1c([S+]([O-])Cc2ccc(S(F)(F)(F)(F)F)cc2)[nH]c2c(Br)ccc(Cl)c2c1=O (stereo not drawn) | = | 5.89 |
| CC(=O)c1c(SCc2cc(F)cc(F)c2)[nH]c2c(Br)ccc(Cl)c2c1=O | < | 5.70 |
| CSc1[nH]c2ccc(F)cc2c(=O)c1C(C)=O | < | 5.70 |

====

tested on: blood cancer cell lines (e.g. HL-60, Jurkat, Raji, Ramos, Daudi, MOLT-4); assay: Cell based assay, cell viability (CellTiter-Glo), blood cancer cell lines; conditions: Homo sapiens, MV4-11, blood cancer cell line MV-4-11, 72 hours, read-out: IC50, MV-4-11
pIC50: −log10 of the molar value.
// reported pIC50 per item
Reported endpoint: pIC50

| Compound | Reported endpoint | Result |
| --- | --- | --- |
| CC(=O)c1c([S+]([O-])Cc2ccc(C(=O)c3ccccc3)cc2)[nH]c2c(Br)ccc(Cl)c2c1=O (centres unmarked) | pIC50 | < 5.70 |
| COCSc1[nH]c2c(Br)ccc(Cl)c2c(=O)c1C(C)=O | pIC50 | < 5.70 |
| CC(=O)c1c([S+]([O-])Cc2cc(C)on2)[nH]c2c(Br)ccc(Cl)c2c1=O (centres unmarked) | pIC50 | 6.17 |
| CC(=O)c1c([S+](C)[O-])n(S(=O)(=O)c2ccc(C(C)(C)C)cc2)c2c(Br)ccc(Cl)c2c1=O (centres unmarked) | pIC50 | < 5.70 |
| CCS(=O)(=O)n1c([S+](C)[O-])c(C(C)=O)c(=O)c2c(Cl)ccc(Br)c21 (centres unmarked) | pIC50 | < 5.70 |
| COc1cccc2[nH]c([S+]([O-])Cc3cc(C)on3)c(C(C)=O)c(=O)c12 (centres unmarked) | pIC50 | 5.86 |
| CC(=O)c1c(SCc2ccccc2)nc2c(Br)ccc(Cl)c2c1O | pIC50 | < 5.70 |
| CC(=O)c1c(S(C)(=O)=O)n(C(=O)c2ccc(Br)cc2)c2c(Br)ccc(Cl)c2c1=O | pIC50 | < 5.70 |
